Items are presented alongside their recorded log10 Ki.
- assay_target: α1d-AR (Homo sapiens)
- Construct: expressed in transfected cells; host or cells: COS-7 cells (membranes)
- Sequence (P25100 whole entry): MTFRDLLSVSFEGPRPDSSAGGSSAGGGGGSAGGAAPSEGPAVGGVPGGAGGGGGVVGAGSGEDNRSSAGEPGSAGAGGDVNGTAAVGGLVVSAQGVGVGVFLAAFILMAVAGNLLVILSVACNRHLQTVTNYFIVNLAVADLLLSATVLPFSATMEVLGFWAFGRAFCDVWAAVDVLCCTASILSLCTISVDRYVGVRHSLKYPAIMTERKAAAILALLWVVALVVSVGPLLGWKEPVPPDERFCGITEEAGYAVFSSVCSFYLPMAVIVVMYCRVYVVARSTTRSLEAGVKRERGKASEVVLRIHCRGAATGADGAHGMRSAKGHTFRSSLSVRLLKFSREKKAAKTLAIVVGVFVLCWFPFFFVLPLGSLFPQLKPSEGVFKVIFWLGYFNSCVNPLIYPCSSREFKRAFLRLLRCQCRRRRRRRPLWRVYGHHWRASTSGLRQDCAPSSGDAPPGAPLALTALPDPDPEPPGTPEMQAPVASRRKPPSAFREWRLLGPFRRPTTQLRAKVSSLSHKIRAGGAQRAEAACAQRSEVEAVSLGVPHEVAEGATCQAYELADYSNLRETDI
- assay_remarks: α1-Adrenergic receptor radio-ligand binding assay, α1d subtype
measured_parameter: log10 Ki (log10 of the value in nM)

INSERT INTO measurements (molecule, assay_target, measured_parameter, endpoint_value) VALUES
  ('O=S(=O)(N[C@H]1CC[C@@H](N2CCC(c3ccccc3OCC(F)(F)F)CC2)CC1)c1ccc2c(c1)OCCO2 [Cpd 13]', 'α1d-AR (Homo sapiens)', 'log10 Ki', 0.48),
  ('COc1ccc(S(=O)(=O)N[C@H]2CC[C@H](N3CCC(c4ccccc4OCC(F)(F)F)CC3)CC2)cc1OC [Cpd 6]', 'α1d-AR (Homo sapiens)', 'log10 Ki', 1.95),
  ('COc1ccc(S(=O)(=O)N[C@H]2CC[C@H](N3CCC(c4ccccc4OC4CC4)CC3)CC2)cc1OC [Cpd 8]', 'α1d-AR (Homo sapiens)', 'log10 Ki', 1.53),
  ('O=S(=O)(N[C@H]1CC[C@H](N2CCC(c3ccccc3OCC(F)(F)F)CC2)CC1)c1ccc2c(c1)OCCO2 [Cpd 14]', 'α1d-AR (Homo sapiens)', 'log10 Ki', 1.41),
  ('O=S(=O)(N[C@H]1CC[C@@H](N2CCC(c3ccccc3OC3CC3)CC2)CC1)c1ccc2c(c1)OCO2 [Cpd 21]', 'α1d-AR (Homo sapiens)', 'log10 Ki', 1.11),
  ('COc1ccc(S(=O)(=O)N[C@H]2CC[C@@H](N3CCC(c4ccc(F)cc4OC(C)C)CC3)CC2)cc1OC [Cpd 31]', 'α1d-AR (Homo sapiens)', 'log10 Ki', 1.09),
  ('O=S(=O)(N[C@H]1CC[C@H](N2CCC(c3ccccc3OC3CC3)CC2)CC1)c1ccc2c(c1)OCO2 [Cpd 22]', 'α1d-AR (Homo sapiens)', 'log10 Ki', 1.76);

---

- assay_target: α1a-AR (Homo sapiens)
- Construct: expressed in transfected cells; host or cells: COS-7 cells (membranes)
- Sequence (P35348 1-455 isoform P35348-4): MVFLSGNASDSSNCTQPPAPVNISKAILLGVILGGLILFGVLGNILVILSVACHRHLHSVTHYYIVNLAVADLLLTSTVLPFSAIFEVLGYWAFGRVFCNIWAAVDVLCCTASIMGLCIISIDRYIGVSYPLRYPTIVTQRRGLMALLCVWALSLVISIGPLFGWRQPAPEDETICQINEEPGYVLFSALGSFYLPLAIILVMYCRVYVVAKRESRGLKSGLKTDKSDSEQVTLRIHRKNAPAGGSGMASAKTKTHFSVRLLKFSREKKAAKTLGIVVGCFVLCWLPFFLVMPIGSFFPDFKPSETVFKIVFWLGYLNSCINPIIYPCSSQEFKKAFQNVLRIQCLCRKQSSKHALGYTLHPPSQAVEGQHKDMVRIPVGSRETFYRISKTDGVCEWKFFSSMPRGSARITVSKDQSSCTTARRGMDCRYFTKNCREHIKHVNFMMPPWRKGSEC
- assay_remarks: α1-Adrenergic receptor radio-ligand binding assay, α1a subtype
Output Condition met for records whose Ki is lower than 10 nM, Condition not met for records at or above 10 nM.

INSERT INTO results (compound, category) VALUES
  ('COc1ccc(S(=O)(=O)N[C@H]2CC[C@@H](N3CCC(c4ccccc4OCC(F)(F)F)CC3)CC2)cc1OC [Cpd 5]', 'Condition met'),
  ('COc1ccc(Cl)cc1S(=O)(=O)N[C@H]1CC[C@H](N2CCC(c3ccccc3OCC(F)(F)F)CC2)CC1 [Cpd 18]', 'Condition not met'),
  ('O=S(=O)(N[C@H]1CC[C@@H](N2CCC(c3ccccc3OC3CC3)CC2)CC1)c1ccc2c(c1)OCO2 [Cpd 21]', 'Condition not met'),
  ('COc1ccc(S(=O)(=O)N[C@H]2CC[C@H](N3CCC(c4ccccc4OCC(F)(F)F)CC3)CC2)cc1OC [Cpd 6]', 'Condition met'),
  ('COc1ccc(S(=O)(=O)N[C@H]2CC[C@H](N3CCC(c4ccccc4OCC(F)F)CC3)CC2)cc1OC [Cpd 30]', 'Condition not met'),
  ('O=S(=O)(N[C@H]1CC[C@H](N2CCC(c3ccccc3OC3CC3)CC2)CC1)c1ccc2c(c1)OCO2 [Cpd 22]', 'Condition not met'),
  ('O=S(=O)(N[C@H]1CC[C@H](N2CCC(c3ccccc3OCC(F)(F)F)CC2)CC1)c1ccc(OC(F)F)cc1 [Cpd 26]', 'Condition not met'),
  ('O=S(=O)(N[C@H]1CC[C@@H](N2CCC(c3ccccc3OCC(F)(F)F)CC2)CC1)c1ccc2c(c1)OCCO2 [Cpd 13]', 'Condition met'),
  ('O=S(=O)(N[C@H]1CC[C@H](N2CCC(c3ccccc3OCC(F)(F)F)CC2)CC1)c1cc(Cl)ccc1F [Cpd 20]', 'Condition met'),
  ('COc1ccc(S(=O)(=O)N[C@H]2CC[C@@H](N3CCC(c4ccccc4OC(C)C)CC3)CC2)cc1OC [Cpd 1]', 'Condition met'),
  ('COc1ccc(S(=O)(=O)N[C@H]2CC[C@H](N3CCC(c4ccccc4OC4CC4)CC3)CC2)cc1OC [Cpd 8]', 'Condition not met'),
  ('O=S(=O)(N[C@H]1CC[C@@H](N2CCC(c3ccccc3OCC(F)(F)F)CC2)CC1)c1cc(Cl)ccc1F [Cpd 19]', 'Condition met'),
  ('O=S(=O)(N[C@H]1CC[C@H](N2CCC(c3ccccc3OCC(F)(F)F)CC2)CC1)c1ccc2c(c1)OCCO2 [Cpd 14]', 'Condition met');

---

- assay_target: α1b-AR (Homo sapiens, UniProt P35368)
- Construct: expressed in transfected cells; host or cells: COS-7 cells (membranes)
- Sequence (P35368 whole entry): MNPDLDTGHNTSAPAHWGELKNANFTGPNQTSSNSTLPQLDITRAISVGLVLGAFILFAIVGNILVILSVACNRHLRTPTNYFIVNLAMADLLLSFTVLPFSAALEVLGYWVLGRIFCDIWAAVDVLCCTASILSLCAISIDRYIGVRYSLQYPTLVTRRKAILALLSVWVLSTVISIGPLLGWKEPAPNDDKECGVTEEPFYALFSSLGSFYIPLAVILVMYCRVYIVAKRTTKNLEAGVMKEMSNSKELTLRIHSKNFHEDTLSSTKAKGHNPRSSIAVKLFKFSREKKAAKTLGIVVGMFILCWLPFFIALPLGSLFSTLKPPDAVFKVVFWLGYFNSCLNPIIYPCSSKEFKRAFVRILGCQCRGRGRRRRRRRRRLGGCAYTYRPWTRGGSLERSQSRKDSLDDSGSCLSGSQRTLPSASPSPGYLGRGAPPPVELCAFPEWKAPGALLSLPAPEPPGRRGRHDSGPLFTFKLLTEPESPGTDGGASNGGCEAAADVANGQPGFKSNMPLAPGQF
- assay_remarks: α1-Adrenergic receptor radio-ligand binding assay, α1b subtype
- measurement_parameters: 125I-HEAT, membranes of COS-7 cells transfected with α1b subtype, rt 1 hr; read-out: Receptor Binding, Ki α1b-AR
measured_parameter: Ki (µM)

INSERT INTO measurements (molecule, endpoint_value) VALUES
  ('O=S(=O)(N[C@H]1CC[C@H](N2CCC(c3ccccc3OCC(F)(F)F)CC2)CC1)c1cc(Cl)ccc1F [Cpd 20]', 0.786),
  ('O=S(=O)(N[C@H]1CC[C@@H](N2CCC(c3ccccc3OCC(F)(F)F)CC2)CC1)c1cc(Cl)ccc1F [Cpd 19]', 0.181),
  ('COc1ccc(Cl)cc1S(=O)(=O)N[C@H]1CC[C@@H](N2CCC(c3ccccc3OCC(F)(F)F)CC2)CC1 [Cpd 17]', 0.216),
  ('COc1ccc(Cl)cc1S(=O)(=O)N[C@H]1CC[C@H](N2CCC(c3ccccc3OC3CC3)CC2)CC1 [Cpd 10]', 0.305);
